# Subject of test: Type-2 angiotensin II receptor (Sus scrofa)
# Assay overview: Displacement of [125I]Ang2 from AT2 receptor in pig uterus myometrium
// values below are reported Ki
Express your answer in nM, writing the number without its unit.

CC[C@H](C)[C@@H]1Nc2c(Cc3ccc(O)cc3)cc(NC(=O)[C@H](CCCN=C(N)N)NC(=O)[C@@H](N)CC(=O)O)cc2CN(CC(=O)N2CCC[C@H]2C(=O)N[C@@H](Cc2ccccc2)C(=O)O)C1=O 53.1

The record that follows has no Ki shown yet.
Lookup: Return value of Ki for input CC[C@H](C)[C@@H]1Nc2c(Cc3ccc(O)cc3)cc(NC(=O)[C@H](CCCN=C(N)N)NC(=O)[C@@H](N)CC(=O)O)cc2CN(CC(=O)N[C@@H](Cc2cnc[nH]2)C(=O)N2CCC[C@H]2C(=O)N[C@@H](Cc2ccccc2)C(=O)O)C1=O , no commentary.
Found: 4.7
